- target: BRD3 (Homo sapiens, UniProt Q15059)
- Sequence (Q15059 2-726): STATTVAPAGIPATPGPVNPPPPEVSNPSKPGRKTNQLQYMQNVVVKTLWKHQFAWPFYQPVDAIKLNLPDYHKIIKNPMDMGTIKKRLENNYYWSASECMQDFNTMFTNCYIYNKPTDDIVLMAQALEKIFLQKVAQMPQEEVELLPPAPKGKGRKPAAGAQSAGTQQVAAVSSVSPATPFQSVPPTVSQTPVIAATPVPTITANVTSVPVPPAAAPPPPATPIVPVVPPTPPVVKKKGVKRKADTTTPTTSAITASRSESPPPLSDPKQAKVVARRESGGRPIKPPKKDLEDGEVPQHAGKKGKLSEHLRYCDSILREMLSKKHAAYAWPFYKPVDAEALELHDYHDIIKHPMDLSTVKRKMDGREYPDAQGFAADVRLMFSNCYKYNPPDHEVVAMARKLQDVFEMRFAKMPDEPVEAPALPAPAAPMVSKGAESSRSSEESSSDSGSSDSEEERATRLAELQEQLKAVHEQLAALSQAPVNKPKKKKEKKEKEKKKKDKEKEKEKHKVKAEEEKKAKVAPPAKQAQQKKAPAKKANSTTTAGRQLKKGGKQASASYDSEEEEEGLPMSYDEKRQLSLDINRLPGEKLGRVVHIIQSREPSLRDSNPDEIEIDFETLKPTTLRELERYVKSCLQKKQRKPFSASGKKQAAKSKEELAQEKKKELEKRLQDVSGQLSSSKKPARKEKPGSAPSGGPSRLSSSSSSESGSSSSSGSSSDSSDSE
- assay summary: BromoKd affinity assay (Eurofins Discovery); cellular degradation competed by HPI-1
- Type: binding
pKd: −log10 of the molar value.
property: pKd

INSERT INTO assay_data (molecule, data_value) VALUES
  ('COCCOC(=O)C1=C(C)NC2=C(C(=O)CC(c3ccccc3OC)C2)C1c1cccc(OCc2cn(CCCCCCOc3cccc4c3C(=O)N(C3CCC(=O)NC3=O)C4=O)nn2)c1 (stereo not shown) [HPP-9]', '~6.70');

---

- target: BRD3 (Homo sapiens)
- assay summary: BromoKd affinity assay (Eurofins Discovery)
- Assay type: binding
pKd: −log10 of the molar value.
property: pKd

INSERT INTO measurements (compound, target, property, data_value) VALUES
  ('COCCOC(=O)C1=C(C)NC2=C(C(=O)CC(c3ccccc3OC)C2)C1c1cccc(O)c1 (stereo not shown) [HPI-1]', 'BRD3 (Homo sapiens)', 'pKd', '~7.82');

FYI, the data here is from paper PMC10314895.
